System: HEK293T cells carrying the ATF4 luciferase reporter
experimentDescription: ATF4-Luc assay (in vitro model of VWMD)
Type: cell-based
testContext: Homo sapiens, HEK-293T; HEK293T cells with ATF4 5'-UTR firefly luciferase reporter; 1 μg/mL tunicamycin; 7 hours; One Glo luminescence
measureName: EC50

Completed entries (count: 5):
| compound | EC50 |
| --- | --- |
| O=C(COc1ccc(Cl)c(Cl)c1)N[C@H]1CC[C@H](C(=O)NCc2cc(CO)ccn2)CC1 [Compound 182] | > 2000 nM |
| COc1ccc(CNC(=O)[C@H]2CC[C@H](NC(=O)COc3ccc(Cl)c(Cl)c3)CC2)cn1 [Compound 105] | > 2000 nM |
| O=C(COc1ccc(Cl)c(Cl)c1)N[C@@H]1CC[C@@H](C(=O)NCc2ccc(C(F)(F)F)cn2)OC1 [Compound 174] | 10 to 50 nM |
| O=C(NCc1ccc(C(F)(F)F)cn1)[C@@H]1CC[C@@H](NC(=O)[C@H]2CNc3cc(Cl)ccc3O2)CO1 (single isomer, unassigned) [Compound 164] | 50 to 250 nM |
| O=C(COc1ccc(Cl)c(F)c1)N[C@@H]1CC[C@@H](C(=O)NCCOc2ccc(Cl)cc2)OC1 [Compound 137] | 10 to 50 nM |

Batch of 4 compounds: report EC50 for each.
1. O=C(COc1ccc(Cl)c(F)c1)N[C@@H]1CC[C@@H](C(=O)NCc2ccc(Cl)c(F)c2)OC1 [Compound 185]
2. O=C(COc1ccc(Cl)c(F)c1)N[C@H]1C[C@H](C(=O)NCc2ccc(Cl)cn2)C1 [Compound 121]
3. O=C(COc1ccc(Cl)c(F)c1)N[C@@H]1CC[C@@H](C(=O)NC2(c3ccc(Cl)cc3)CC2)OC1 [Compound 141]
4. O=C(COc1ccc(Cl)c(Cl)c1)N[C@H]1CC[C@H](C(=O)NCc2ccc(Cl)cn2)CC1 [Compound 175]

[reply]
1: 10 to 50 nM; 2: 250 to 500 nM; 3: > 2000 nM; 4: 50 to 250 nM

Batch of 2 compounds: report EC50 for each.
1. O=C(COc1ccc(Cl)c(F)c1)N[C@H]1CC[C@H](C(=O)NCc2cc(C(F)(F)F)ccn2)CC1 [Compound 171]
2. O=C(COc1ccc(Cl)c(F)c1)N[C@H]1CC[C@H](C(=O)N2CCC[C@@H]2c2cc(F)ccc2F)CC1 [Compound 113]

[reply]
1. 50 to 250 nM
2. > 2000 nM

Batch of 2 compounds: report EC50 for each.
1. O=C(COc1ccc(Cl)c(Cl)c1)N[C@H]1CC[C@H](C(=O)NCc2ccc(OC(F)F)cn2)CC1 [Compound 120]
2. O=C(COc1ccc(Cl)c(F)c1)N[C@H]1C[C@H](C(=O)NCc2ccc(C(F)(F)F)cn2)C1 [Compound 122]

[reply]
10 to 50 nM
500 to 2000 nM
